experiment: Population PK model of total and unbound pamiparib plasma concentrations in glioblastoma patients (Monolix; bootstrap evaluation); format: in vivo, human; details: human, plasma, oral, 60 mg, unbound pamiparib; final covariate model; population mean (% RSE in Table 2); read-out: θ4 (Fu)
QUANTITY_KIND: fraction unbound
Give bare numbers.

Problem: GET /values?readout=fraction unbound&item= C[C@]12CCCN1CC1=NNC(=O)c3cc(F)cc4[nH]c2c1c34 [pamiparib]
Result: 0.042

---

assay: Population PK model of total and unbound pamiparib plasma concentrations in glioblastoma patients (Monolix; bootstrap evaluation); type: in vivo, human; settings: human, plasma, oral, 60 mg, unbound pamiparib; bootstrap mean; read-out: θ4 (Fu)
QUANTITY_KIND: fraction unbound

Problem: GET /values?readout=fraction unbound&item= C[C@]12CCCN1CC1=NNC(=O)c3cc(F)cc4[nH]c2c1c34 [pamiparib]
Result: 0.041

---

Assay: Population PK model of total and unbound pamiparib plasma concentrations in glioblastoma patients (Monolix; bootstrap evaluation)
Format: in vivo, human
Details: human, plasma; glioblastoma patients, 60 mg twice daily oral; read-out: population mean elimination half-life (T1/2) (converted)
Procedure: The total and unbound pamiparib plasma concentration data used in the population PK analysis were obtained from a phase 0/II study (ClinicalTrials.gov ID: NCT04614909), which enrolled 41 patients with newly diagnosed or recurrent glioblastoma. The protocols were approved by the Institutional Review Board of the Barrow Neurological Institute. […] Various residual error models, including constant, proportional, and combined error models, were evaluated. […]
QUANTITY_KIND: half-life

Problem: GET /values?readout=half-life&item= "C[C@]12CCCN1CC1=NNC(=O)c3cc(F)cc4[nH]c2c1c34"
Result: ~12 h
